# Test system: MDA-MB-468 breast
# PROTOCOL_NOTES: NCI tumour cell line growth inhibition, 48 h; in the data active = GI50 below about 0.43 µM; inactive = the rest
Hi there, use one of these labels in your reply, thanks! yes (1) = active, no (0) = inactive

Some solved entries appear below for comparison.
Ask: So what was the verdict on Cn1c2ccc(Br)cc2c2c3c(c4c5ccccc5[nH]c4c21)C(=O)N(O)C3=O in this test?
Result: yes (1)

Ask: So what was the verdict on COc1cccc(C2c3cc4c(cc3OC(N3CCCC3)C2C)OCO4)c1O (stereo not given) in this test?
Result: no (0)

Ask: So what was the verdict on CCN(CC)CCCC(C)N=C(C1=C(C(=NC(C)CCCN(CC)CC)c2cccc(OC)c2)C(=O)NC1=O)c1cccc(OC)c1 (stereo not given) in this test?
Result: no (0)

Ask: So what was the verdict on COc1ccccc1CNCCCN1C(=O)c2ccc3c4c(ccc(c24)C1=O)C(=O)N(CCCCNCCCN)C3=O in this test?
Result: yes (1)

Ask: So what was the verdict on CC(C)(C)[Si](C)(C)OC1[C@@H](O[Si](C)(C)C(C)(C)C)[C@@H](CNC(=O)NC(=O)CCl)O[C@H]1n1cnc2c(NC(=O)Nc3ccccc3)ncnc21 (stereo not given in full) in this test?
Result: no (0)

***
Ask: So what was the verdict on COc1ccc(C(=O)c2cc3c(N)c(C(=O)Nc4ccc(C)cc4)sc3nc2C)cc1 in this test?
Result: no (0)

Ask: So what was the verdict on CCC(CNc1cc(OC)cc2cccnc12)NC1CCCCC1 (stereo not given) in this test?
Result: no (0)

Ask: So what was the verdict on N#Cc1c(NC(=O)c2ccccc2C(F)(F)F)sc2c1CCC(=O)C2 in this test?
Result: no (0)

Ask: So what was the verdict on CC(C)(C)CC(C)(C)NCc1cc(C(C)(C)C)cc(CNC(C)(C)CC(C)(C)C)c1O in this test?
Result: no (0)

Ask: So what was the verdict on Cn1cc(-c2cc(N)n3nc(-c4c[nH]c5ccc(Cl)cc45)cc3n2)c2cccnc21 in this test?
Result: no (0)

* * *

# Tested on: MDA-MB-468 breast
# PROTOCOL_NOTES: NCI tumour cell line growth inhibition, 48 h
param class (str): category from TGI; see ranges low bracket: < 3 µM; middle bracket: ≥ 3 µM and < 7 µM; high bracket: ≥ 7 µM

Some solved entries appear below for comparison.
Ask: # bin lookup: classify COc1ccc2c(c1)CC[C@H](O)/C2=C/c1cc(OC)c(OC)c(OC)c1 by its TGI
Result: high bracket

Ask: # bin lookup: classify Cc1cc(N2CCSCC2)nc(NC2CCCC(Nc3ccnc4cc(Cl)ccc34)C2)n1 (centres undefined) by its TGI
Result: middle bracket

Ask: # bin lookup: classify C=C1CCC2C(C)(COC(=O)CC)C(OC(=O)CC)CCC2(C)C1C/C=C1/C(=O)OCC1OC(=O)CC (centres undefined) by its TGI
Result: middle bracket

Ask: # bin lookup: classify N#Cc1c(NC(=O)c2ccccc2C(F)(F)F)sc2c1CCC(=O)C2 by its TGI
Result: middle bracket

Ask: # bin lookup: classify O=C1CCC(N2C(=O)c3cccc(NCCCCCC(=O)N4CCN(c5ccc6nc7c(nc6c5C(F)(F)F)C(=O)c5ncccc5C7=O)CC4)c3C2=O)C(=O)N1 (centres undefined) by its TGI
Result: low bracket

Ask: # bin lookup: classify Cc1nc(N2CCC3(CC2)CO[C@@H](C)[C@H]3N)c(CO)nc1Sc1ccnc(N)c1Cl by its TGI
Result: middle bracket

***
Ask: # bin lookup: classify CCN(CC)CCCNC(=O)c1c2c(n3ccccc13)C(=O)c1ncccc1C2=O by its TGI
Result: low bracket

Ask: # bin lookup: classify COc1ccc2[nH]cc(-c3nc(N)nnc3-c3cn(C)c4ccc(Br)cc34)c2c1 by its TGI
Result: high bracket

Source listed as PubChem BioAssay (NCI).
